# targetOrSystem: T1, cynomolgus CX3CR1 (cynomolgus, UniProt P49238 1-355 (human entry))
# T1 construct: transiently expressed on HEK293T cells; also called cyCX3CR1; cyno CX3CR1
# T1 chain: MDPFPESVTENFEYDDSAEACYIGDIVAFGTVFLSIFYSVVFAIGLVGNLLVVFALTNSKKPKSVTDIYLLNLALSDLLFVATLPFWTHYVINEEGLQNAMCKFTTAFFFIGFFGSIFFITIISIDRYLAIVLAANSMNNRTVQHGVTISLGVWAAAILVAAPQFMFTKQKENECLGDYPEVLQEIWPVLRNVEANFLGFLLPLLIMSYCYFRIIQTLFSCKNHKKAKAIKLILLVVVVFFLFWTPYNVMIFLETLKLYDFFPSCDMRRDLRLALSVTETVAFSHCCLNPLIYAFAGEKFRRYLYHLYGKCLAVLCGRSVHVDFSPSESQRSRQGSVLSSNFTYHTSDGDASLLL
# assayProtocol: A647-fractalkine competition FACS, HEK293T cynomolgus CX3CR1
// % block lookup, one value per entry
Expressed in %, but write only the number.

Here's what some known entries look like.
| binder | units | % block |
| --- | --- | --- |
| CX3CR1BII020 (VHH, expressed in E. coli as described for the monovalent VHHs) EVQLVESGGGSVQAGESLRLSCAASGSIFSSNAMAWYRQAPGKQRDLVAGINSVGITKYADSVKGRFTISRDNAKNTAYLQMNSLKPEDTAVYYCTSDPRRGWDTRYWGQGTLVTVSSGGGGSGGGGSGGGGSGGGGSGGGGSGGGGSGGGGSEVQLVESGGGSVQAGESLRLSCAASGSIFSSNAMAWYRQAPGKQRDLVAGINSVGITKYADSVKGRFTISRDNAKNTAYLQMNSLKPEDTAVYYCTSDPRRGWDTRYWGQGTLVTVSS | % | 97 |
| CX3CR1BII019 (VHH, expressed in E. coli as described for the monovalent VHHs) EMQLVESGGGSVQAGESLRLSCAASGSIFSSNAMAWYRQAPGKQRDLVALINSVGITKYADSVKGRFTISRDNAKNTVYLQMNSLKPEDTAVYYCTSDGRRGWDTRYWGQGTQVTVSSGGGGSGGGGSGGGGSGGGGSGGGGSGGGGSGGGGSEMQLVESGGGSVQAGESLRLSCAASGSIFSSNAMAWYRQAPGKQRDLVALINSVGITKYADSVKGRFTISRDNAKNTVYLQMNSLKPEDTAVYYCTSDGRRGWDTRYWGQGTQVTVSS | % | 96 |
| CX3CR1BII018 (VHH, A647 label where used as labeled competitor (Example 14), expressed in E. coli as described for the monovalent VHHs; also called A647-018; A647 labeled CX3CR1BII018) EVQLVESGGGSVQAGESLRLSCAASGSIFSSNAMAWYRQAPGKRRDLVAAINSVGVTKYADSVKGRFTISRDNAKNTVYLQMNSLKPEDTAVYYCTSDPRRGWDTRYWGQGTQVTVSSGGGGSGGGGSGGGGSGGGGSGGGGSGGGGSGGGGSEVQLVESGGGSVQAGESLRLSCAASGSIFSSNAMAWYRQAPGKRRDLVAAINSVGVTKYADSVKGRFTISRDNAKNTVYLQMNSLKPEDTAVYYCTSDPRRGWDTRYWGQGTQVTVSS | % | 97 |
| CX3CR1BII016 (VHH, expressed in E. coli as described for the monovalent VHHs) EVQLVESGGGSVQAGESLRLSCAASGSIFSSNAMAWYRQAPGKQRDLVAVINSVGITKYADSVKGRFTISGDNAKNTVYLQMNSLKPEDTAVYYCTSDARRGWDTRYWGQGTQVTVSSGGGGSGGGGSGGGGSGGGGSGGGGSGGGGSGGGGSEVQLVESGGGSVQAGESLRLSCAASGSIFSSNAMAWYRQAPGKQRDLVAVINSVGITKYADSVKGRFTISGDNAKNTVYLQMNSLKPEDTAVYYCTSDARRGWDTRYWGQGTQVTVSS | % | 98 |

The binder CX3CR1BII017 (VHH, expressed in E. coli as described for the monovalent VHHs) EVQLVESGGGSVQAGESLRLSCAASGSIFSSNAMAWYRQAPPGKQRDLVALINSVGITKYADSVKGRFTISSDNAKNTVYLEMNSLKPEDTAVYYCTSDGRRGWDTRYWGQGTQVTVSSGGGGSGGGGSGGGGSGGGGSGGGGSGGGGSGGGGSEVQLVESGGGSVQAGESLRLSCAASGSIFSSNAMAWYRQAPPGKQRDLVALINSVGITKYADSVKGRFTISSDNAKNTVYLEMNSLKPEDTAVYYCTSDGRRGWDTRYWGQGTQVTVSS showed % block equal to 95
